Just for reference, patent US20170355774A1 is where these values come from.

Target: T1, human GITR (amino acids M1-V241, NCBI Accession #NP_004186.1) expressed on cells (human, UniProt Q9Y5U5 26-241)
T1 sequence: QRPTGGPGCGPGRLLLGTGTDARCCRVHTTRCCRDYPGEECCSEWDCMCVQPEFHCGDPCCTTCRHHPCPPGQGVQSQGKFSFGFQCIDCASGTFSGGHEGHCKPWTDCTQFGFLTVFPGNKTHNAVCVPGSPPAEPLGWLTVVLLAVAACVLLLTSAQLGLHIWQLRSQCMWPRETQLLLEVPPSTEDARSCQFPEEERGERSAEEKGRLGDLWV
Experiment: cell-based or functional assay
measured quantity: fold activation, T-cell proliferation, 33 nM, FcgR anchored, donor 1 (fold)
The answer is to be given in fold; state only the numeric part.

Request: Which value of fold activation, T-cell proliferation, 33 nM, FcgR anchored, donor 1 has been reported for H4H14525P (antibody, human IgG4, V domains shown, human IgG4 (H4H)) VH: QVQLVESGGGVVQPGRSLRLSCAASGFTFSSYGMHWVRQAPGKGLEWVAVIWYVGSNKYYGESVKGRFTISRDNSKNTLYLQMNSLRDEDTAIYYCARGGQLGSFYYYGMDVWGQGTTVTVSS VL: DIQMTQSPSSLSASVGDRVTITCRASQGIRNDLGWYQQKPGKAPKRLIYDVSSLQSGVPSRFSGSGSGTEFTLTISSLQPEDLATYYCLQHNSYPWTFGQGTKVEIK in the records?
Response: 1.2

Request: Moving on to the next binder: H4H14521P (antibody, human IgG4, V domains shown, human IgG4 (H4H)) VH: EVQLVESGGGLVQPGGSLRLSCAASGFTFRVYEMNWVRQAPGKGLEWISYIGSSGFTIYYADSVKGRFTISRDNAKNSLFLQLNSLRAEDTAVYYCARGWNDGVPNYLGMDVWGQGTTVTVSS VL: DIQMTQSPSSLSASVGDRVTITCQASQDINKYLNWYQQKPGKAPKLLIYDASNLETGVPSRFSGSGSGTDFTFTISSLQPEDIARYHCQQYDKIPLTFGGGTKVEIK
Response: 1.5

Request: Moving on to the next binder: H4H14516P (antibody, human IgG4, V domains shown, human IgG4 (H4H)) VH: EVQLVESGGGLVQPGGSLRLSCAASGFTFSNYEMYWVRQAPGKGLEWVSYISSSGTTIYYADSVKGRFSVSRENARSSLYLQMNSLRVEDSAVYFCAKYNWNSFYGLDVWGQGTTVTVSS VL: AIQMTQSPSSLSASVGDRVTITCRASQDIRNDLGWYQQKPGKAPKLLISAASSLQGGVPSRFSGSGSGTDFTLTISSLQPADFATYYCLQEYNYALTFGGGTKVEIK
Response: 1.2
